# system name: Keap1 (Homo sapiens (Human), UniProt Q14145)
# Sequence (Q14145 whole entry): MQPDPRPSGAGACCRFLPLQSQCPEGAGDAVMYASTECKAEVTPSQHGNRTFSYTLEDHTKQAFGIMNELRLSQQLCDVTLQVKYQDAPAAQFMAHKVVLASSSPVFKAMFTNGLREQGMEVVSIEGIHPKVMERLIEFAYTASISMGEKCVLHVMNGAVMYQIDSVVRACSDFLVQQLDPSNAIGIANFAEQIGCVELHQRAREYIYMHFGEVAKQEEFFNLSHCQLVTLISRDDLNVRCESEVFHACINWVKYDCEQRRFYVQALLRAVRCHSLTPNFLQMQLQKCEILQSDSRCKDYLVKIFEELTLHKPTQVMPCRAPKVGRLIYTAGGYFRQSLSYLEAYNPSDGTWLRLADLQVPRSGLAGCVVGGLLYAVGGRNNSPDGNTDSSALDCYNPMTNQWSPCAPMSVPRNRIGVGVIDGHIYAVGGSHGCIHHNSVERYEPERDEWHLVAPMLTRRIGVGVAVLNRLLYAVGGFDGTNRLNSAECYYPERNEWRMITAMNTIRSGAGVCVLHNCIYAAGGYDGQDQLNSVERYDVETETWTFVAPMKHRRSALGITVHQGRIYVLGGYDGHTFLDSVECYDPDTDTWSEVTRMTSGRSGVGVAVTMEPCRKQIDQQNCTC
# test protocol: HEK293 ARE luciferase assay
# conditions used: HEK-293 ARE firefly luciferase transiently transfected cells; 18 h incubation; mean of 1 to 20 individual measurements
Consider the following compounds; for each one, report its EC50.

Summary line: C/C=C/c1cc(F)cnc1C1(OC)C=C(C#N)C(=O)C(C)(C)C1 (single isomer, unassigned) [Compound 94] , Keap1 (Homo sapiens (Human), UniProt Q14145), reported EC50 = 21 nM

Kindly note: Keap1 (Homo sapiens (Human), UniProt Q14145), COC1(c2ncc(Cl)cc2Cl)C=C(C#N)C(=O)C(C)(C)C1 (single isomer, unassigned) , EC50 value reported: 12 nM

I looked up CC1(C)CC(O)(c2ccc(C(F)(F)F)cn2)C=C(C#N)C1=O (stereo not shown) and its EC50 for Keap1 (Homo sapiens (Human), UniProt Q14145) was > 10000 nM

Entry COC1(c2ncc(F)cc2C)C=C(C#N)C(=O)C2(CCCC2)C1 (single isomer, unassigned) [Compound 68] under Keap1 (Homo sapiens (Human), UniProt Q14145) had EC50 of 70 nM

###

# system name: Keap1 (Homo sapiens (Human))
# test protocol: HEK293 ARE luciferase assay
# conditions used: HEK-293 ARE firefly luciferase transiently transfected cells; 18 h incubation; mean of 1 to 20 individual measurements
reported endpoint: pEC50
Interpret pEC50 as the negative base-10 log of the concentration measured in mol/L.

pEC50 reading for COC1(c2ncc(F)cc2-c2cnn(C3CC3)c2)C=C(C#N)C(=O)C(C)(C)C1 (stereo not shown) [Compound 166] : 7.85

Item: [2H]C([2H])([2H])OC1(c2cccc(-c3cnn(C)c3)n2)C=C(C#N)C(=O)C(C)(C)C1 (single isomer, unassigned) | pEC50: 7.92

Sample `CO[C@]1(c2ncc(Cl)cn2)C=C(C#N)C(=O)C(C)(C)C1` ; pEC50 observed: 7.70

Given item COC1(c2ncc(Cl)cc2C(F)F)C=C(C#N)C(=O)C2(CC2)C1 (single isomer, unassigned) , the value recorded as its pEC50 is 7.36

###

# system name: UniProtKB Q14145
# test protocol: HEK293 ARE luciferase assay
# conditions used: HEK-293 ARE firefly luciferase transiently transfected cells; 18 h incubation; mean of 1 to 20 individual measurements
pEC50: −log10 of the molar value.
Record T whenever pEC50 is at 7 or higher; record F when lower.

### Prompt Does the compound COC1(c2cc(-c3cnn(C)c3)ccn2)C=C(C#N)C(=O)C(C)(C)C1 (stereo not drawn) [Compound 112] have recorded pEC50 that is 7 or more?
### Response F

### Prompt Could you verify whether the entry COC1(c2ncc(F)cc2-c2ccnc(C)c2C)C=C(C#N)C(=O)C(C)(C)C1 (single isomer, unassigned) [Compound 82] shows pEC50 of no less than 7?
### Response T

### Prompt Please tell me: is the compound COC1(c2ncccc2C(F)(F)F)C=C(C#N)C(=O)C(C)(C)C1 (single isomer, unassigned) [Compound 15] at or over 7 in terms of pEC50?
### Response T

### Prompt Reported pEC50 reaches at least 7 for COC1(c2ncc(F)cc2-c2cnc(C)nc2)C=C(C#N)C(=O)C(C)(C)C1 (single isomer, unassigned) [Compound 89] ?
### Response T

### Prompt Dear colleague, could you confirm whether COC1(c2ncc(F)cc2-c2ccc(F)cc2)C=C(C#N)C(=O)C(C)(C)C1 (single isomer, unassigned) [Compound 70] has pEC50 at or above 7?
### Response T

### Prompt Does COC1(c2nc(C(F)(F)F)cs2)C=C(C#N)C(=O)C(C)(C)C1 (stereo not drawn) [Compound 141] have a reported pEC50 of at least 7?
### Response F

### Prompt Has COC1(c2ncc(F)cc2OC(F)F)C=C(C#N)C(=O)C(C)(C)C1 (stereo not drawn) [Compound 174] a recorded pEC50 greater than or equal to 7?
### Response T

### Prompt Quick check: does COC1(c2ncc(F)cc2-c2ccc(C(F)(F)F)nc2)C=C(C#N)C(=O)C(C)(C)C1 (single isomer, unassigned) [Compound 90] have pEC50 greater than or equal to 7?
### Response T

### Prompt Decide: pEC50 of COC1(c2ncc(F)cc2-c2cncc(C(=O)N(C)C)c2)C=C(C#N)C(=O)C(C)(C)C1 (single isomer, unassigned) [Compound 227] >= 7?
### Response T

### Prompt hey, is pEC50 for this one >= 7? COC1(c2ncc(F)cc2-c2cc(C)nc(C)c2)C=C(C#N)C(=O)C(C)(C)C1 (stereo not drawn) [Compound 173]
### Response T

### Prompt Hi, just wondering whether COC1(c2ncc(F)cc2-c2cncc(C3CC3)c2)C=C(C#N)C(=O)C(C)(C)C1 (single isomer, unassigned) [Compound 232] shows pEC50 of 7 or higher.
### Response T

### Prompt Please tell me: is the compound COC1(c2ncccc2Br)CC(C)(C)C(=O)C(C#N)=C1C (stereo not drawn) [Compound 108] at or over 7 in terms of pEC50?
### Response F

###

# system name: UniProt:Q14145
# test protocol: HEK293 ARE luciferase assay
# conditions used: HEK-293 ARE firefly luciferase transiently transfected cells; 18 h incubation; mean of 1 to 20 individual measurements
pEC50: −log10 of the molar value.
Label fulfilled when pEC50 is at or above 7; anything below gets not fulfilled.

### Prompt Answer whether pEC50 of COC1(c2cccc(-c3cncnc3)n2)C=C(C#N)C(=O)C(C)(C)C1 (single isomer, unassigned) [Compound 104] is greater than or equal to 7.
### Response fulfilled

### Prompt Determine whether this compound has pEC50 no lower than 7: COC1(c2sccc2C)C=C(C#N)C(=O)C(C)(C)C1 (single isomer, unassigned) [Compound 34]
### Response fulfilled

### Prompt Does the reported pEC50 for CO[C@]1(c2ncc(C)s2)C=C(C#N)C(=O)C(C)(C)C1 [Compound 40] fall at or above the 7 mark?
### Response fulfilled

### Prompt Check the entry COC1(c2ccccc2C(F)(F)F)C=C(C#N)C(=O)C(C)(C)C1 (centres unmarked) [Compound 19] : does pEC50 equal or exceed 7?
### Response not fulfilled

### Prompt Decide: is the reported value of pEC50 for COC1(c2nccs2)C=C(C#N)C(=O)C(C)(C)C1 (centres unmarked) [Compound 144] equal to or greater than 7?
### Response not fulfilled

### Prompt I'd appreciate it if you could say whether COC1(c2ccccn2)C=C(C#N)C(=O)C2(CC2)C1 (single isomer, unassigned) [Compound 56] has pEC50 at least equal to 7.
### Response not fulfilled

### Prompt Could you please find out whether COC1(c2ncccc2C(F)F)C=C(C#N)C(=O)C(C)(C)C1 (centres unmarked) [Compound 124] has pEC50 that meets 7 or exceeds it?
### Response fulfilled

### Prompt Quick check: does COC1(c2ncc(F)cc2-c2ccnc(C(F)(F)F)c2)C=C(C#N)C(=O)C(C)(C)C1 (single isomer, unassigned) [Compound 236] have pEC50 greater than or equal to 7?
### Response fulfilled

###

# system name: Keap1 (Homo sapiens (Human))
# test protocol: HEK293 ARE luciferase assay
# conditions used: HEK-293 ARE firefly luciferase transiently transfected cells; 18 h incubation; mean of 1 to 20 individual measurements
pEC50: −log10 of the molar value.
Parameter threshold = 7. Response is fulfilled when pEC50 meets or exceeds it, else not fulfilled.

### Prompt In plain terms: is recorded pEC50 at least 7 for COC1(c2ncccc2Br)C=C(C#N)C(=O)C(C)(C)C1 (stereo not shown) [Compound 22] ?
### Response fulfilled

### Prompt Exam item: decide whether the reported pEC50 for COC1(c2cccc(-c3cncnc3)n2)C=C(C#N)C(=O)C2(CC2)C1 (stereo not shown) [Compound 127] is at least 7.
### Response not fulfilled

### Prompt // inclusive: pEC50 at least 7? input: COC1(c2ncc(F)cc2-c2ccnnc2)C=C(C#N)C(=O)C(C)(C)C1 (single isomer, unassigned) [Compound 220]
### Response fulfilled

### Prompt Given COC1(c2ncc(F)cc2-c2ccc(=O)n(C)c2)C=C(C#N)C(=O)C(C)(C)C1 (stereo not shown) [Compound 167] , state whether its pEC50 is at least 7.
### Response fulfilled

### Prompt Item COC1(c2ncc(F)cc2-c2cnn3ccccc23)C=C(C#N)C(=O)C(C)(C)C1 (single isomer, unassigned) [Compound 219] with pEC50 of 7 or above?
### Response fulfilled

### Prompt Textbook exercise: given the entry COC1(c2ncc(F)cc2-c2ccc3ccnn3c2)C=C(C#N)C(=O)C(C)(C)C1 (single isomer, unassigned) [Compound 203] , state whether its pEC50 is greater than or equal to 7.
### Response fulfilled

### Prompt State whether the measured pEC50 reaches 7, counting equality as reaching it, for COC1(c2sc(C)nc2C)C=C(C#N)C(=O)C(C)(C)C1 (stereo not shown) [Compound 46]
### Response not fulfilled

### Prompt Item COC1(c2ncccc2C(F)(F)F)C=C(C#N)C(=O)C2(CCCC2)C1 (stereo not shown) [Compound 148] with pEC50 of 7 or above?
### Response not fulfilled

### Prompt // inclusive: pEC50 at least 7? input: COC1(c2ncccc2C(F)F)C=C(C#N)C(=O)C(C)(C)C1 (single isomer, unassigned) [Compound 5]
### Response fulfilled

### Prompt Textbook exercise: given the entry COC1(c2ncc(F)cc2-c2cccc(=O)[nH]2)C=C(C#N)C(=O)C(C)(C)C1 (stereo not shown) [Compound 193] , state whether its pEC50 is greater than or equal to 7.
### Response not fulfilled

### Prompt # bool: pEC50 of COC1(c2ccccn2)C=C(C#N)C(=O)C2(CC2)C1 (stereo not shown) [Compound 135] >= 7
### Response not fulfilled

### Prompt State whether the measured pEC50 reaches 7, counting equality as reaching it, for COC1(c2ncc(F)cc2-c2ccc3nc(C)cn3c2)C=C(C#N)C(=O)C(C)(C)C1 (single isomer, unassigned) [Compound 201]
### Response not fulfilled

Hello, the source for this data is patent US11479539B2, in case you need it.
